Reported values of pIC50 for individual entries
target: COX-2 (Mus musculus, UniProt Q05769); construct: endogenous in cells; experiment: COX-2 assay: PGE2 release (RIA) from LPS-stimulated mouse peritoneal macrophages; conditions: LPS 1 mg/L 9 h, PGE2 by RIA
Sequence (Q05769 18-604): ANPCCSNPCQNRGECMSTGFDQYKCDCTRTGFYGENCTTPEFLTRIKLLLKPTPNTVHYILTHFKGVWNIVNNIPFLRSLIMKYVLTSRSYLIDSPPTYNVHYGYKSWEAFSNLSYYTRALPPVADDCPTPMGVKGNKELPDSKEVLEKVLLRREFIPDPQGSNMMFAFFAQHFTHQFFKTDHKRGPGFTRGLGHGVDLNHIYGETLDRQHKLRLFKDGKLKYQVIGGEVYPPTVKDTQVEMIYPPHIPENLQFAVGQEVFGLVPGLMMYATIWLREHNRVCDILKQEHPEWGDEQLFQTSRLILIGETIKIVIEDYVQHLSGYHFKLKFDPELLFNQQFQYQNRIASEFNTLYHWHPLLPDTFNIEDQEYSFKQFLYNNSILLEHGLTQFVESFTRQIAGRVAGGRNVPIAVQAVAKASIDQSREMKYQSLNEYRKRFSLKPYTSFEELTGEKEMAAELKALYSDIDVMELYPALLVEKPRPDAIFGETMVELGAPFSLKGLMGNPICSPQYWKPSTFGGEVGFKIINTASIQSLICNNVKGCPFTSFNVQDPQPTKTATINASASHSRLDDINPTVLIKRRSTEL
// field semantics: pIC50 = negative decimal log of concentration (mol/L)

>  <molecule>
NS(=O)(=O)c1ccc(-c2[nH]c3ccccc3c2-c2ccc(O)cc2)cc1 [Example 96]

>  <system>
COX-2 (Mus musculus, UniProt Q05769)

>  <reported-value>
8.19

$$$$
>  <molecule>
NS(=O)(=O)c1ccc(-c2[nH]c3ccc(Cl)cc3c2-c2ccccc2Cl)cc1 [Example 77]

>  <system>
COX-2 (Mus musculus, UniProt Q05769)

>  <reported-value>
7.00

$$$$
>  <molecule>
CS(=O)(=O)c1ccc(-c2[nH]c3ccccc3c2-c2ccc(Cl)cc2)cc1 [Example 61]

>  <system>
COX-2 (Mus musculus, UniProt Q05769)

>  <reported-value>
6.84

$$$$
>  <molecule>
CS(=O)(=O)c1ccc(-c2[nH]c3ccc(Cl)cc3c2-c2ccccc2Cl)cc1 [Example 78]

>  <system>
COX-2 (Mus musculus, UniProt Q05769)

>  <reported-value>
8.00

$$$$

Notebook: COc1ccc(-c2c(-c3ccc(S(C)(=O)=O)cc3)[nH]c3ccccc23)cc1 [Example 69] , pIC50 read as 10.66

Notebook: CC(=O)NS(=O)(=O)c1ccc(-c2[nH]c3ccccc3c2-c2ccccc2)cc1 [Example 97] , pIC50 read as 9.74

Notebook: Cc1ccc(-c2c(-c3ccc(S(C)(=O)=O)cc3)[nH]c3ccccc23)cc1C [Example 67] , pIC50 read as 9.78

Notebook: CC(=O)Oc1ccc(-c2[nH]c3ccc(Cl)cc3c2-c2ccc(S(C)(=O)=O)cc2)cc1 [Example 94] , pIC50 read as 8.15

* * *

property: melting point

Solved entries:
>  <compound>
CS(=O)(=O)c1ccc(-c2c(-c3ccc(O)cc3)[nH]c3ccc(Cl)cc23)cc1 [Example 95]

>  <melting point>
271 to 273 °C

$$$$
>  <compound>
CS(=O)(=O)c1ccc(-c2[nH]c3ccc(Cl)cc3c2-c2ccc(Cl)cc2)cc1 [Example 73]

>  <melting point>
281 to 283 °C

$$$$
>  <compound>
NS(=O)(=O)c1ccc(-c2[nH]c3ccc(Cl)cc3c2-c2ccccc2)cc1 [Example 75]

>  <melting point>
297 to 299 °C

$$$$

Would you kindly look at the next entry?
Notebook: CC(=O)Oc1ccccc1-c1[nH]c2ccc(Cl)cc2c1-c1ccc(S(C)(=O)=O)cc1 [Example 93] , melting point read as 238 to 240 °C

* * *

Tested on: carrageenan-induced foot pad edema
Experiment: Rat carrageenan-induced foot pad edema assay
Format: in vivo
Details: 10 mg/kg oral, 2 h after carrageenan
Method: Male Sprgue-Dawley rats (190-220 g ) were fasted with free access to water at least 16 h prior experiments. The rats were dosed orally with a 1 ml suspension of test compound in vehicle (0.5% methyl cellulose and 0.025% Tween-20) or with vehicle alone. One hour later a subplantar injection of 0.1 ml of 1% solution of carageenan in 0.9% strile saline was administered to the right hind foot pad. Paw volume was measured with a displacement plethysmometer 2, 3, and 4 h after carrageenan injection.
Reported values of edema (paw volume increase) for individual entries

>  <structure-string>
CC(=O)Oc1ccccc1-c1[nH]c2ccc(Cl)cc2c1-c1ccc(S(C)(=O)=O)cc1

>  <property>
edema (paw volume increase)

>  <reported-value>
49.5%

$$$$
>  <structure-string>
CS(=O)(=O)c1ccc(-c2[nH]c3ccccc3c2-c2ccccc2)cc1

>  <property>
edema (paw volume increase)

>  <reported-value>
40.8%

$$$$
>  <structure-string>
CS(=O)(=O)c1ccc(-c2[nH]c3ccc(F)cc3c2-c2ccccc2)cc1

>  <property>
edema (paw volume increase)

>  <reported-value>
41.8%

$$$$
>  <structure-string>
Cc1ccc2[nH]c(-c3ccc(S(N)(=O)=O)cc3)c(-c3ccccc3)c2c1

>  <property>
edema (paw volume increase)

>  <reported-value>
63.1%

$$$$
>  <structure-string>
NS(=O)(=O)c1ccc(-c2[nH]c3ccc(F)cc3c2-c2ccccc2)cc1

>  <property>
edema (paw volume increase)

>  <reported-value>
36.7%

$$$$

Notebook: Cc1ccc(-c2c(-c3ccc(S(C)(=O)=O)cc3)[nH]c3ccccc23)cc1C , edema (paw volume increase) read as 25.6%

Notebook: NS(=O)(=O)c1ccc(-c2c(-c3ccccc3)[nH]c3ccccc23)cc1 , edema (paw volume increase) read as 36.6%

Notebook: CS(=O)(=O)c1ccc(-c2c(-c3ccccc3)[nH]c3ccccc23)cc1 , edema (paw volume increase) read as 42.8%

Notebook: CS(=O)(=O)c1ccc(-c2c(-c3ccccc3F)[nH]c3ccc(Cl)cc23)cc1 , edema (paw volume increase) read as 31.3%

Notebook: CS(=O)(=O)c1ccc(-c2[nH]c3ccc(Cl)cc3c2-c2ccccc2)cc1 , edema (paw volume increase) read as 45%

* * *

property: melting point

>  <structure-string>
CS(=O)(=O)c1ccc(-c2c(-c3ccccc3)[nH]c3ccc(Cl)cc23)cc1

>  <melting point>
273 to 275 °C

$$$$
>  <structure-string>
CS(=O)(=O)c1ccc(-c2[nH]c3ccccc3c2-c2ccc(F)cc2)cc1

>  <melting point>
224 to 226 °C

$$$$
>  <structure-string>
CS(=O)(=O)c1ccc(-c2[nH]c3ccc(F)cc3c2-c2ccccc2)cc1

>  <melting point>
243 to 245 °C

$$$$
>  <structure-string>
Cc1ccc(-c2[nH]c3ccc(Cl)cc3c2-c2ccc(S(C)(=O)=O)cc2)cc1

>  <melting point>
238 to 240 °C

$$$$
>  <structure-string>
NS(=O)(=O)c1ccc(-c2[nH]c3ccccc3c2-c2ccccc2)cc1

>  <melting point>
231 to 232 °C

$$$$
>  <structure-string>
CS(=O)(=O)c1ccc(-c2c(-c3ccccc3F)[nH]c3ccc(Cl)cc23)cc1

>  <melting point>
246 to 248 °C

$$$$

Notebook: CS(=O)(=O)c1ccc(-c2[nH]c3ccc(Cl)cc3c2-c2cccc(Cl)c2)cc1 , melting point read as 254 to 257 °C

Notebook: CS(=O)(=O)c1ccc(-c2[nH]c3ccc(Cl)cc3c2-c2ccccc2)cc1 , melting point read as 281 to 283 °C

Notebook: COc1ccc(-c2[nH]c3ccc(Cl)cc3c2-c2ccc(S(C)(=O)=O)cc2)cc1 , melting point read as 246 to 248 °C

Notebook: COc1ccc(-c2c(-c3ccc(S(C)(=O)=O)cc3)[nH]c3ccccc23)cc1 , melting point read as 218.5 to 220.5 °C

Notebook: CS(=O)(=O)c1ccc(-c2c(-c3ccccc3)[nH]c3ccccc23)cc1 , melting point read as 239 to 241 °C

* * *

test system: carrageenan-induced foot pad edema; assay: Rat carrageenan-induced foot pad edema assay; assay type: in vivo; conditions: 10 mg/kg oral, 3 h after carrageenan
property: edema (paw volume increase) (%)
Give just the number in %; leave the unit off.

Solved entries:
>  <compound>
COc1ccc(-c2c(-c3ccc(S(N)(=O)=O)cc3)[nH]c3ccccc23)cc1

>  <system>
carrageenan-induced foot pad edema

>  <edema (paw volume increase) [%]>
34.6

$$$$
>  <compound>
CS(=O)(=O)c1ccc(-c2[nH]c3ccccc3c2-c2ccccc2)cc1

>  <system>
carrageenan-induced foot pad edema

>  <edema (paw volume increase) [%]>
48.6

$$$$
>  <compound>
CC(=O)Oc1ccccc1-c1[nH]c2ccc(Cl)cc2c1-c1ccc(S(C)(=O)=O)cc1

>  <system>
carrageenan-induced foot pad edema

>  <edema (paw volume increase) [%]>
54.4

$$$$
>  <compound>
NS(=O)(=O)c1ccc(-c2[nH]c3ccc(Cl)cc3c2-c2ccccc2)cc1

>  <system>
carrageenan-induced foot pad edema

>  <edema (paw volume increase) [%]>
44.1

$$$$
>  <compound>
Cc1ccc(-c2c(-c3ccc(S(C)(=O)=O)cc3)[nH]c3ccccc23)cc1

>  <system>
carrageenan-induced foot pad edema

>  <edema (paw volume increase) [%]>
35.8

$$$$
>  <compound>
COc1ccc(-c2c(-c3ccc(S(C)(=O)=O)cc3)[nH]c3ccccc23)cc1

>  <system>
carrageenan-induced foot pad edema

>  <edema (paw volume increase) [%]>
43.4

$$$$
>  <compound>
CS(=O)(=O)c1ccc(-c2[nH]c3ccccc3c2-c2ccc(Cl)cc2)cc1

>  <system>
carrageenan-induced foot pad edema

>  <edema (paw volume increase) [%]>
30.6

$$$$
>  <compound>
Cc1ccc(-c2cc(C(F)(F)F)nn2-c2ccc(S(N)(=O)=O)cc2)cc1 [Celecoxib, reference compound]

>  <system>
carrageenan-induced foot pad edema

>  <edema (paw volume increase) [%]>
53.2

$$$$
>  <compound>
Cc1ccc2[nH]c(-c3ccc(S(N)(=O)=O)cc3)c(-c3ccccc3)c2c1

>  <system>
carrageenan-induced foot pad edema

>  <edema (paw volume increase) [%]>
65.6

$$$$
>  <compound>
COc1ccc(-c2[nH]c3ccc(Cl)cc3c2-c2ccc(S(C)(=O)=O)cc2)cc1

>  <system>
carrageenan-induced foot pad edema

>  <edema (paw volume increase) [%]>
46.5

$$$$

Would you kindly look at the next entry?
Considering CS(=O)(=O)c1ccc(-c2c(-c3ccccc3)[nH]c3ccc(Cl)cc23)cc1 , its edema (paw volume increase) with carrageenan-induced foot pad edema was recorded as 46.9
